# key: entry, value: pKd
Biological target: T1, GFP-9S library array, motif 4 ND N98S;D124F (synthetic construct, N98S;D124F)
T1 chain: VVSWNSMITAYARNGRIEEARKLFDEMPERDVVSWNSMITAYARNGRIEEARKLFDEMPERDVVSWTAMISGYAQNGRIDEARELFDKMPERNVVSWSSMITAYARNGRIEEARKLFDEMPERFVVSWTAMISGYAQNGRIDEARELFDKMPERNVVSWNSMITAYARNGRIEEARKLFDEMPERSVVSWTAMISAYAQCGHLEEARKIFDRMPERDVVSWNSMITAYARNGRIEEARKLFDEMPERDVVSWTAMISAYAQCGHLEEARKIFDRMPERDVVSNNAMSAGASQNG
Assay: high-throughput RNA pulldown from lysate on Ni-NTA beads; HRP: 50 mM Tris pH 8, 150 mM NaCl, 1 mM beta-mercaptoethanol, 50 ug/ml BSA, 3 ug/ml yeast RNA, 0.5% heparin; ITC and FP: Tris pH 8, 200 mM KCl, 5% glycerol; MST: 50 mM Tris pH 8, 200 mM NaCl, 1 mM DTT, BSA, heparin, 0.05% Tween 20
Settings: tags: N-terminal His-eGFP; label: 5' IRDye 800CW
pKd: −log10 of the molar value.
MEASUREMENT TYPE: pKd

1. AUUAAACGUGA (ssRNA) [IR-rpoA-A]: 7.12
2. AUUAUACGUGA (ssRNA) [IR-rpoA-U]: 6.77
